The measured values listed here are drawn from ChEMBL document CHEMBL4261581.

- Target under test: Cytochrome P450 1A2 (Homo sapiens)
- Sequence (P05177 whole entry): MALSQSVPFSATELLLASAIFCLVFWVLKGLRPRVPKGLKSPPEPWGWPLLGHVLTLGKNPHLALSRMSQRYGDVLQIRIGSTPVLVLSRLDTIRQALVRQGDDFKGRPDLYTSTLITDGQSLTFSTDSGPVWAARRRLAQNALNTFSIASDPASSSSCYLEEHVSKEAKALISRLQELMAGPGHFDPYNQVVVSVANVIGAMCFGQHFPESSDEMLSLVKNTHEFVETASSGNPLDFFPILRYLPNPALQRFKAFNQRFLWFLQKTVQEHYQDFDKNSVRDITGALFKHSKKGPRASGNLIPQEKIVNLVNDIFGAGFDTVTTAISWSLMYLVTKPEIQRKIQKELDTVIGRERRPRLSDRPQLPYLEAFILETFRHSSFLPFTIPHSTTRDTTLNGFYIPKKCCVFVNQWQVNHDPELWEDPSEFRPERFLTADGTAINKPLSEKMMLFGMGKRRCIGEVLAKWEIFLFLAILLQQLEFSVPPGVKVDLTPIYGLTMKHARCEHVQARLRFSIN
Quantity: IC50
# output: number + unit

### Prompt Given OCC1CCCC(c2ccc(O)cc2)CC1 (racemic) , state its recorded IC50.
### Response 130 µM

====

- Target under test: Peroxisome proliferator-activated receptor delta (Homo sapiens)
- Sequence (Q03181 whole entry): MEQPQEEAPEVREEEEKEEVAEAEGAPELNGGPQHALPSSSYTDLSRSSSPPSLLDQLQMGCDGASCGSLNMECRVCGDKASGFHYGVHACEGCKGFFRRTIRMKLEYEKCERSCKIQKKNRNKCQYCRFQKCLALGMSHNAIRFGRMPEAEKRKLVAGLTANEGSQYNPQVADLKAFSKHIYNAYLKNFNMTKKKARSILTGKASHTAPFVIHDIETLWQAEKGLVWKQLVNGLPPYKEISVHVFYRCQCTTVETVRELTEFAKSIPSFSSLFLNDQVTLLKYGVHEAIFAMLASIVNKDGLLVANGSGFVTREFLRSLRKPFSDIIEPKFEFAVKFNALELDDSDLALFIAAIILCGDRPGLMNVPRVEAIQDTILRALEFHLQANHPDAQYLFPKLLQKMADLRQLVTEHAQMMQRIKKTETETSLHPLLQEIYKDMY
- Method notes: Agonist activity at GAL4 DNA-binding domain fused PPARdelta receptor (unknown origin) ligand binding domain expressed in UAS-bla HEK 293T cells assessed as beta-lactamase transcriptional activation by FRET-based GeneBLAzer assay
Quantity: pIC50
Worth noting: pIC50 values are minus log10 of concentrations stated in mol/L.

### Prompt Consider the molecule shown here: CCCc1c(OCCCOc2ccc(OCC(=O)O)cc2)ccc(C(C)=O)c1O What is its recorded pIC50?
### Response 7.90

====

For each entry below, report its EC50 value.
- Target under test: Estrogen receptor beta (Homo sapiens)
- Sequence (Q92731 whole entry): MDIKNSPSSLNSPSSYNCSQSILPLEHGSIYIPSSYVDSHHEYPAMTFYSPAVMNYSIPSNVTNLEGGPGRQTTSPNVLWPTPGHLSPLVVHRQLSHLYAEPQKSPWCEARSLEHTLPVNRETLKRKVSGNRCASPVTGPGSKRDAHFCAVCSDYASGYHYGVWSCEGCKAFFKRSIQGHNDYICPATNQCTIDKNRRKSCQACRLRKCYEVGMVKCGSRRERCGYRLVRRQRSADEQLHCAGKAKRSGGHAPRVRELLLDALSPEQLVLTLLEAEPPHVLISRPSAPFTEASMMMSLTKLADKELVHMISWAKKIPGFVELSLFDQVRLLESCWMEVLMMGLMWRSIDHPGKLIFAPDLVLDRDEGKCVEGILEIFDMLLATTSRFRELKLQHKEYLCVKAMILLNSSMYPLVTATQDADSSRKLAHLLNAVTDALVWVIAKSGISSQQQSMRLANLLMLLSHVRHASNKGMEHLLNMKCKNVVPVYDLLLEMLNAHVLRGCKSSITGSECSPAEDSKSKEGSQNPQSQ
- Method notes: Agonist activity at full length ERbeta (unknown origin) after 24 hrs by cell based ERE-driven luciferase reporter gene assay
Please state the figure in nM; there is no need to write the unit.

### Prompt Consider the molecule shown here: OCCC1CCCC(c2ccc(O)cc2)CC1 (racemic) What is its recorded EC50?
### Response 139

### Prompt What does the record list as EC50 for OC[C@@H]1CCC[C@H](c2ccc(O)cc2)CC1 ?
### Response 51

### Prompt What does the data say about its EC50? Entry: OC[C@@H]1CCC[C@@H](c2ccc(O)cc2)CC1 (stereo in doubt)
### Response 48

### Prompt Using the record for OC[C@H]1CCC[C@@H](c2ccc(O)cc2)CC1 , report its EC50.
### Response 121

### Prompt For the molecule Oc1ccc(C2CCCC(O)CC2)cc1 (racemic) , what EC50 is on record?
### Response 362

### Prompt EC50 lookup needed for OCC1CCCC(c2ccc(O)cc2)CC1 (racemic) , thanks.
### Response 33

### Prompt Tell me the measured EC50 of OC[C@H]1CCC[C@H](c2ccc(O)cc2)CC1 (stereo in doubt) , please.
### Response 50
